test system: choroidal neovascularization; assay: Choroidal neovascularization in rats (laser photocoagulation, FFA); format: in vivo; settings: day 28 after administration, total light spot number was 69, 0.05 μM in the vitreous chamber once a day for 1 week, BN rats
Peptide text beside a SMILES is read from it. * marks the point of attachment. X84 = O=C1C=CC(=O)N1c1ccccc1CCCCCCCCCCCCC(=O)*; X64 = O=C1C=CC(=O)N1c1cccc(CCCCCCCCCC(=O)*)c1; X59 = O=C1C=CC(=O)N1c1cccc(CCCCCCCCC(=O)*)c1; X54 = O=C1C=CC(=O)N1c1cccc(CCCCCCC(=O)*)c1; X46 = O=C1C=CC(=O)N1c1cccc(CCCCC(=O)*)c1; X75 = O=C1C=CC(=O)N1c1cccc(CC(=O)*)c1
Short version: Leakage Light spot number at least 30 is yes (1), less is no (0).

Given the entry C[C@H](NC(=O)CNC(=O)[C@H](CCCNC(=N)N)NC(=O)CCCCCCCCc1cccc(N2C(=O)C=CC2=O)c1)C(=O)N[C@@H](CC(=O)O)C(=O)N[C@@H](CCCNC(=N)N)C(=O)N[C@@H](C)C(=O)NCC(=O)NCC(=O)NCC(=O)NCC(=O)N[C@@H](CCCNC(=N)N)C(=O)NCC(=O)N[C@@H](CC(=O)O)C(=O)O [X32] (X59-RGADRAGGGGRGD-OH) , answer whether its Leakage Light spot number meets or surpasses 30.
no (0)

Given the entry C[C@H](NC(=O)CNC(=O)[C@H](CCCNC(=N)N)NC(=O)CCCCCCc1cccc(N2C(=O)C=CC2=O)c1)C(=O)N[C@@H](CC(=O)O)C(=O)N[C@@H](CCCNC(=N)N)C(=O)N[C@@H](C)C(=O)NCC(=O)NCC(=O)NCC(=O)NCC(=O)N[C@@H](CCCNC(=N)N)C(=O)NCC(=O)N[C@@H](CC(=O)O)C(=O)O [X30] (X54-RGADRAGGGGRGD-OH) , answer whether its Leakage Light spot number meets or surpasses 30.
no (0)

Given the entry C[C@H](NC(=O)CNC(=O)[C@H](CCCNC(=N)N)NC(=O)CCCCCCCCCc1cccc(N2C(=O)C=CC2=O)c1)C(=O)N[C@@H](CC(=O)O)C(=O)N[C@@H](CCCNC(=N)N)C(=O)N[C@@H](C)C(=O)NCC(=O)NCC(=O)NCC(=O)NCC(=O)N[C@@H](CCCNC(=N)N)C(=O)NCC(=O)N[C@@H](CC(=O)O)C(=O)O [X33] (X64-RGADRAGGGGRGD-OH) , answer whether its Leakage Light spot number meets or surpasses 30.
no (0)

Given the entry C[C@H](NC(=O)CNC(=O)[C@H](CCCNC(=N)N)NC(=O)Cc1cccc(N2C(=O)C=CC2=O)c1)C(=O)N[C@@H](CC(=O)O)C(=O)N[C@@H](CCCNC(=N)N)C(=O)N[C@@H](C)C(=O)NCC(=O)NCC(=O)NCC(=O)NCC(=O)N[C@@H](CCCNC(=N)N)C(=O)NCC(=O)N[C@@H](CC(=O)O)C(=O)O [X25] (X75-RGADRAGGGGRGD-OH) , answer whether its Leakage Light spot number meets or surpasses 30.
yes (1)

Given the entry C[C@H](NC(=O)CNC(=O)[C@H](CCCNC(=N)N)NC(=O)CCCCCCCCCCCCc1ccccc1N1C(=O)C=CC1=O)C(=O)N[C@@H](CC(=O)O)C(=O)N[C@@H](CCCNC(=N)N)C(=O)N[C@@H](C)C(=O)NCC(=O)NCC(=O)NCC(=O)NCC(=O)N[C@@H](CCCNC(=N)N)C(=O)NCC(=O)N[C@@H](CC(=O)O)C(=O)O [X24] (X84-RGADRAGGGGRGD-OH) , answer whether its Leakage Light spot number meets or surpasses 30.
yes (1)

Given the entry C[C@H](NC(=O)CNC(=O)[C@H](CCCNC(=N)N)NC(=O)CCCCc1cccc(N2C(=O)C=CC2=O)c1)C(=O)N[C@@H](CC(=O)O)C(=O)N[C@@H](CCCNC(=N)N)C(=O)N[C@@H](C)C(=O)NCC(=O)NCC(=O)NCC(=O)NCC(=O)N[C@@H](CCCNC(=N)N)C(=O)NCC(=O)N[C@@H](CC(=O)O)C(=O)O [X28] (X46-RGADRAGGGGRGD-OH) , answer whether its Leakage Light spot number meets or surpasses 30.
no (0)
